# test_name: HA binding of biotinylated peptides on HA-derivatized ELISA plates
property_name: ability to bind HA

>>> df
     item_sequence          result
0   STMMSRSHKTRSHH  can bind to HA
1  STMMSRSHKTRSCHH  can bind to HA
